Some molecules, each annotated with its measured IC50.
# targetOrSystem: HSV-1 helicase–primase (HP) complex (UL5/UL52/UL8) (Human alphaherpesvirus 1 strain 17, UniProt P10189+P10236)
# Sequence (P10189 whole entry): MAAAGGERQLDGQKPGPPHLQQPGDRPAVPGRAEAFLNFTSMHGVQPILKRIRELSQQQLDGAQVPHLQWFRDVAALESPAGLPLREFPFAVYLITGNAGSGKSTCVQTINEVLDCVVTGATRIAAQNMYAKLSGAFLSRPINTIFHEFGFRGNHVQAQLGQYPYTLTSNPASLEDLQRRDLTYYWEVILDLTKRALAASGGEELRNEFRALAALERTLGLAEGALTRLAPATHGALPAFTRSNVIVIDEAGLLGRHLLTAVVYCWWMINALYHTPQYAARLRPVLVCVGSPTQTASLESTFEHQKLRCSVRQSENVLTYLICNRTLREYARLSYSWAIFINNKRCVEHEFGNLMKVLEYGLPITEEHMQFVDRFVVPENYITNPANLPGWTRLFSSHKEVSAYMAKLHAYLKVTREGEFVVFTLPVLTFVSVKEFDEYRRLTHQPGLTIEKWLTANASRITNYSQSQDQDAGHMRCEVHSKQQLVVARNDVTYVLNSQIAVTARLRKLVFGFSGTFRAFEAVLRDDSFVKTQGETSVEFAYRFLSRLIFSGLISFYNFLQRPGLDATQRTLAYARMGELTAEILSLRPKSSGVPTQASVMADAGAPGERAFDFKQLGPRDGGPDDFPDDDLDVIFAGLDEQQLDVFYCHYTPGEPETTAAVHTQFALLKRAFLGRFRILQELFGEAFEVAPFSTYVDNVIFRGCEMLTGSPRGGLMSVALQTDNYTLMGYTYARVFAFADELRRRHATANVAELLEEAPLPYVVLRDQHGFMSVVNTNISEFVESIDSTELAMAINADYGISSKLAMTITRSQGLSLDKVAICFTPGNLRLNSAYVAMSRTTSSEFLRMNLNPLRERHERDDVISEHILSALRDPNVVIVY
# Sequence (P10236 whole entry): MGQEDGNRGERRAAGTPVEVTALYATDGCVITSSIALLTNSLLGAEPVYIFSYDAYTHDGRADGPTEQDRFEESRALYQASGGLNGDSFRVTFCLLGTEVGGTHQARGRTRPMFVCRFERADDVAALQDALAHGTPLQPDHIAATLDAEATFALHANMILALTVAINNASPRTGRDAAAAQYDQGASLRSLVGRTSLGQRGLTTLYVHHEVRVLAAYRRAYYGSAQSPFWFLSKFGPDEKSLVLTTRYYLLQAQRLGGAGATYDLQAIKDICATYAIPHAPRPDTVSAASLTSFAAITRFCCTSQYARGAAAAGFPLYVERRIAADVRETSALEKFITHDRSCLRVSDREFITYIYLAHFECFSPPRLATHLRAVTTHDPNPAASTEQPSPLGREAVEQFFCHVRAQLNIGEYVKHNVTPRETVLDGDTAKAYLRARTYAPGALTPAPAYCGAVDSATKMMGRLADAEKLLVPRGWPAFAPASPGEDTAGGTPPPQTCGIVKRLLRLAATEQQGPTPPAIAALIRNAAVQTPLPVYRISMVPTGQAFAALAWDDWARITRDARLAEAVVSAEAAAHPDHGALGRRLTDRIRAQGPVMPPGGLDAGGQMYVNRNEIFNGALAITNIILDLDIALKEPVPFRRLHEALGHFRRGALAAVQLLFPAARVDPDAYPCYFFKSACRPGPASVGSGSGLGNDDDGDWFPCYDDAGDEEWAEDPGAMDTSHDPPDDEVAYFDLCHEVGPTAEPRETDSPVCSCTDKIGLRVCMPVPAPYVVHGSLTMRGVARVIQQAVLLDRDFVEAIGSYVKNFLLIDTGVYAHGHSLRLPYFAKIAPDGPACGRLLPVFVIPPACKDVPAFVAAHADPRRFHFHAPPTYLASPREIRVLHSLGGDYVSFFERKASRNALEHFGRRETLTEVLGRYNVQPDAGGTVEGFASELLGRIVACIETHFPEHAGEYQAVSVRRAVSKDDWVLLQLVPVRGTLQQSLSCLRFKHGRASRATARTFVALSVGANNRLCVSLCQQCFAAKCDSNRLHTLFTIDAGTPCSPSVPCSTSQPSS
# Sequence (P10192 whole entry partner): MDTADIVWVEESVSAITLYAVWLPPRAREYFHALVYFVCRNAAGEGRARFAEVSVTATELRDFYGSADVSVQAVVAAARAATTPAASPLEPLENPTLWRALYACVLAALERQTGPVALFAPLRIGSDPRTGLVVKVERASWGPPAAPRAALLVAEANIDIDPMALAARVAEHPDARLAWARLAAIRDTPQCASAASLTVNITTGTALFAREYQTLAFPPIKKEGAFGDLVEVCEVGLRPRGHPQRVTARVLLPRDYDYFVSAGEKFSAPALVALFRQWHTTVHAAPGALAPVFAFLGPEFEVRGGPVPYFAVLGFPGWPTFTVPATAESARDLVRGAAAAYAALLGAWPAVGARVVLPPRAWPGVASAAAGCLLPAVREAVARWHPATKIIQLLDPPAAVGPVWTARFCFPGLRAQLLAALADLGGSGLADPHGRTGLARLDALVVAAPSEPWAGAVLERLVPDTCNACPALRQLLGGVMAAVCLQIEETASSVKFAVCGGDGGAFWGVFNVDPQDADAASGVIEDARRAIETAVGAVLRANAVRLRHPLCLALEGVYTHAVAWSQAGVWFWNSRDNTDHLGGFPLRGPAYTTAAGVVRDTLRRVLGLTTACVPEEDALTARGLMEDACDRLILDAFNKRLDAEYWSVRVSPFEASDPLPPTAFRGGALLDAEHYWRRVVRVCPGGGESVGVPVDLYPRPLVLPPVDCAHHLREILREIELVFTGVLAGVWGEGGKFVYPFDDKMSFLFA
# methodDescription: fluorescent forked-DNA unwinding
The response must be a number in nM with no trailing unit.

>  <moleculeSmiles>
Cc1cccc(C)c1N(CC(=O)Nc1ccc(-c2ncon2)cc1)C(=O)C1CCS(=O)(=O)CC1

>  <propertyLabel>
IC50

>  <scaleUnit>
nM

>  <observed>
3.5

$$$$

## Task I would be grateful if you could share the reported IC50 for Cc1nc(N(C)C(=O)Cc2ccc(-c3ccccn3)cc2)sc1S(N)(=O)=O .
## Result 11.1

Origin of values: paper PMC12669039
